Recorded clearance values for a group of molecules are listed next.
- EXPERIMENTAL PROTOCOL: Clearance in Wistar-Han rat at 1 mg/kg, iv and 5 mg/kg, po
- Format: ADME, organism-based
- PARTICULARS: in vivo
Reply with a number, then the unit it belongs to.

Some molecules with known clearance results, for comparison:
> print(dat)
                                   molecule  recorded.value
1  O=C(O)CCNC(=O)c1ccc(C(Nc2cnn(-c3ccc(C(F)(F)F)cc3)c2)C2CCCC2)cc1 (single isomer, unassigned; (-))    76 mL/min/kg
2  O=C(O)CCNC(=O)c1ccc(C(CCC(F)(F)F)Nc2cnn(-c3ccc(C(F)(F)F)cc3)c2)cc1 (single isomer, unassigned; (+))    56 mL/min/kg
3  CCCC(Oc1cnn(-c2ccc(C(F)(F)F)cc2)c1)c1ccc(C(=O)NCCC(=O)O)cc1 (single isomer, unassigned; (-))    48 mL/min/kg

Moving on to the next molecule.
Return clearance (reported value) for this molecule: CCCC(Nc1cnn(-c2ccc(C(F)(F)F)cc2)c1)c1ccc(C(=O)NCCC(=O)O)cc1 (single isomer, unassigned; (+))
67 mL/min/kg

###

- EXPERIMENTAL PROTOCOL: Kinetic solubility of the compound at pH 6.5
- Type: physicochemical
- PARTICULARS: buffer, read-out: Kinetic_solubility
EXPERIMENTAL READOUT: solubility kinetic (µM)
Express your answer in µM, writing the number without its unit.

> print(dat)
                                   compound  experimental.readout  recorded.value
1  O=C(O)CCNC(=O)c1ccc(C(Nc2cnn(-c3ccc(C(F)(F)F)cc3)c2)C2CCCC2)cc1 (single isomer, unassigned; (+))    solubility kinetic             320
2  CCCC(Oc1cnn(-c2ccc(C(F)(F)F)cc2)c1)c1ccc(C(=O)NCCC(=O)O)cc1 (single isomer, unassigned; (+))    solubility kinetic              53
3  O=C(O)CCNC(=O)c1ccc(C(CCC(F)(F)F)Nc2cnn(-c3ccc(C(F)(F)F)cc3)c2)cc1 (single isomer, unassigned; (+))    solubility kinetic             490

Moving on to the next compound.
Return solubility kinetic (reported value) for this compound: CCCC(Nc1cnn(-c2ccc(C(F)(F)F)cc2)c1)c1ccc(C(=O)NCCC(=O)O)cc1 (single isomer, unassigned; (+))
550

###

- EXPERIMENTAL PROTOCOL: Clearance in dog at 0.5 mg/kg, iv
- Format: ADME, organism-based, Canis lupus familiaris
- Set-up: dose 0.5 mg/kg, route intravenous
- PARTICULARS: in vivo
Recorded clearance values for a group of molecules are listed next.
Express your answer in mL/min/kg, writing the number without its unit.

> print(dat)
                                   molecule  recorded.value
1  CCCC(Oc1cnn(-c2ccc(C(F)(F)F)cc2)c1)c1ccc(C(=O)NCCC(=O)O)cc1 (single isomer, unassigned; (-))             9.6

Moving on to the next molecule.
Return clearance (reported value) for this molecule: O=C(O)CCNC(=O)c1ccc(C(Nc2cnn(-c3ccc(C(F)(F)F)cc3)c2)C2CCCC2)cc1 (single isomer, unassigned; (-))
4.6

###

- EXPERIMENTAL PROTOCOL: Plasma concentration in Wistar-Han rat at 10 mg/kg, iv after 11 mins
- Assay type: ADME, organism-based
- Parameters: dose 10 mg/kg, route intravenous
EXPERIMENTAL READOUT: concentration at 11 min (ng/mL)
Express your answer in ng/mL, writing the number without its unit.

Return concentration at 11 min (reported value) for this molecule: O=C(O)CCNC(=O)c1ccc(C(Nc2cnn(-c3ccc(C(F)(F)F)cc3)c2)C2CCCC2)cc1 (single isomer, unassigned; (+))
2280

###

- EXPERIMENTAL PROTOCOL: Lipophilicity, log D of the compound in octanol-phosphate buffer at pH 7.4
- Type: physicochemical
- PARTICULARS: octanol/water
EXPERIMENTAL READOUT: logD
A bare number is all that is needed in reply.

Return logD (reported value) for this compound: CCCC(Oc1cnn(-c2ccc(C(F)(F)F)cc2)c1)c1ccc(C(=O)NCCC(=O)O)cc1 (single isomer, unassigned; (-))
2.31

Return logD (reported value) for this compound: CCCC(Nc1cnn(-c2ccc(C(F)(F)F)cc2)c1)c1ccc(C(=O)NCCC(=O)O)cc1 (single isomer, unassigned; (-))
1.77

Return logD (reported value) for this compound: O=C(O)CCNC(=O)c1ccc(C(CCC(F)(F)F)Nc2cnn(-c3ccc(C(F)(F)F)cc3)c2)cc1 (single isomer, unassigned; (-))
1.76

Return logD (reported value) for this compound: O=C(O)CCNC(=O)c1ccc(C(Nc2cnn(-c3ccc(C(F)(F)F)cc3)c2)C2CCCC2)cc1 (single isomer, unassigned; (-))
2.29

###

Recorded Kb values for a group of compounds are listed next.
- TARGET OR SYSTEM: UniProtKB P47871
- Sequence (P47871 whole entry): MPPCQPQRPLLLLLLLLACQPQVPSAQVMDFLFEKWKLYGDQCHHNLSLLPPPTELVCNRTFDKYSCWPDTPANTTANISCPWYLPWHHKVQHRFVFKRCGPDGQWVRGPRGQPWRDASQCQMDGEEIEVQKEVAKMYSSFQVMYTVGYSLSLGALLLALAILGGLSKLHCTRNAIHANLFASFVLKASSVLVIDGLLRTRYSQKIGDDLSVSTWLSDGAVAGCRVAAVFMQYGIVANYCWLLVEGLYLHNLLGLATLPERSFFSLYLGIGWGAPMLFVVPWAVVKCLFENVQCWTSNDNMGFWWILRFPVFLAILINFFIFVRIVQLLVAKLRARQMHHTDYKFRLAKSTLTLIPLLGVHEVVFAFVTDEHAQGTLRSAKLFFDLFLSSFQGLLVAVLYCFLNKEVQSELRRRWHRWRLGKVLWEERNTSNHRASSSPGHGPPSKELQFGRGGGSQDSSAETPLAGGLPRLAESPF
- EXPERIMENTAL PROTOCOL: Antagonist activity at human GCGR assessed as inhibition of glucagon-induced cAMP accumulation in cell-based assay
- Type: functional
Express your answer in nM, writing the number without its unit.

Some compounds with known Kb results, for comparison:
> print(dat)
                                   compound  experimental.readout  recorded.value
1  CCCC(Oc1cnn(-c2ccc(C(F)(F)F)cc2)c1)c1ccc(C(=O)NCCC(=O)O)cc1 (single isomer, unassigned; (-))                    Kb             520
2  CCCC(Oc1cnn(-c2ccc(CC)cc2)c1)c1ccc(C(=O)NCCC(=O)O)cc1 (racemic)                    Kb            3420
3  CCC[C@H](c1ccc(C(=O)NCCC(=O)O)cc1)[C@H](c1ccc(Cl)cc1)c1c[nH]c2c(F)cc(C)cc12                    Kb              18

Return Kb (reported value) for this compound: CCCC(Oc1cnn(-c2ccc(C(F)(F)F)cc2)c1)c1ccc(C(=O)NCCC(=O)O)cc1 (racemic)
992

Return Kb (reported value) for this compound: O=C(O)CCNC(=O)c1ccc(C(CCC(F)(F)F)Nc2cnn(-c3ccc(C(F)(F)F)cc3)c2)cc1 (single isomer, unassigned; (-))
520

Return Kb (reported value) for this compound: CCCC(Oc1cnn(-c2ccc(C(F)(F)F)nc2)c1)c1ccc(C(=O)NCCC(=O)O)cc1 (racemic)
21500

Return Kb (reported value) for this compound: O=C(O)CCNC(=O)c1ccc(C(Nc2cnn(-c3ccc(C(F)(F)F)cc3)c2)C2CCCC2)cc1 (single isomer, unassigned; (-))
320

###

- EXPERIMENTAL PROTOCOL: Plasma concentration in Wistar-Han rat at 1 mg/kg, iv after 11 mins
- Assay type: ADME, organism-based
- Parameters: dose 1 mg/kg, route intravenous
EXPERIMENTAL READOUT: concentration at 11 min
Reply with a number, then the unit it belongs to.

Return concentration at 11 min (reported value) for this molecule: O=C(O)CCNC(=O)c1ccc(C(Nc2cnn(-c3ccc(C(F)(F)F)cc3)c2)C2CCCC2)cc1 (single isomer, unassigned; (+))
300 ng/mL

###

- EXPERIMENTAL PROTOCOL: Permeability across low transporter-containing MDCK2 cells
- Format: ADME, cell-based, Canis lupus familiaris, MDCK-II
- PARTICULARS: dog, MDCK; read-out: permeability
EXPERIMENTAL READOUT: Papp (nm/s)
Express your answer in nm/s, writing the number without its unit.

> print(dat)
                                   compound  experimental.readout  units  recorded.value
1  O=C(O)CCNC(=O)c1ccc(C(Nc2cnn(-c3ccc(C(F)(F)F)cc3)c2)C2CCCC2)cc1 (single isomer, unassigned; (+))                  Papp   nm/s            63.4
2  CCCC(Oc1cnn(-c2ccc(C(F)(F)F)cc2)c1)c1ccc(C(=O)NCCC(=O)O)cc1 (single isomer, unassigned; (+))                  Papp   nm/s            77.4

Moving on to the next compound.
Return Papp (reported value) for this compound: O=C(O)CCNC(=O)c1ccc(C(CCC(F)(F)F)Nc2cnn(-c3ccc(C(F)(F)F)cc3)c2)cc1 (single isomer, unassigned; (+))
34.8

###

- EXPERIMENTAL PROTOCOL: Permeability across low transporter-containing MDCK2 cells
- Format: ADME, cell-based, Canis lupus familiaris, MDCK-II
- PARTICULARS: dog, mdck-ii
EXPERIMENTAL READOUT: permeability (×10⁻⁶ cm/s)
Express your answer in ×10⁻⁶ cm/s, writing the number without its unit.

> print(dat)
                                   compound  recorded.value
1  CCCC(Oc1cnn(-c2ccc(C(F)(F)F)cc2)c1)c1ccc(C(=O)NCCC(=O)O)cc1 (single isomer, unassigned; (-))            5.87

Return permeability (reported value) for this compound: O=C(O)CCNC(=O)c1ccc(C(CCC(F)(F)F)Nc2cnn(-c3ccc(C(F)(F)F)cc3)c2)cc1 (single isomer, unassigned; (-))
3.8

Return permeability (reported value) for this compound: CCCC(Nc1cnn(-c2ccc(C(F)(F)F)cc2)c1)c1ccc(C(=O)NCCC(=O)O)cc1 (single isomer, unassigned; (-))
2.76

Return permeability (reported value) for this compound: CCCC(Nc1cnn(-c2ccc(C(F)(F)F)cc2)c1)c1ccc(C(=O)NCCC(=O)O)cc1 (single isomer, unassigned; (+))
8.81

Return permeability (reported value) for this compound: O=C(O)CCNC(=O)c1ccc(C(Nc2cnn(-c3ccc(C(F)(F)F)cc3)c2)C2CCCC2)cc1 (single isomer, unassigned; (-))
7.54
